Measured responders at 150 mg/kg values are reported for all entries that follow.
# System: Candida albicans ATCC 11651
# methodSummary: In vivo systemic Candida infection in mice, primary assay
# Parameters: species or system Candida albicans; CF-1 female mice
# particulars: Candida albicans, ATCC11651, 336 h, 150 mg/kg per day, day 14; read-out: % Survival
Please reply with the bare figure in % and do not write the unit itself.

Study these solved cases before continuing.
CC=C(c1ccccc1)C(O)(Cn1cncn1)c1ccc(F)cc1 (stereo not drawn) [Example 286] ... 50
C=C(c1ccc(SC)cc1)C(O)(Cn1cncn1)c1ccc(F)cc1 (stereo not drawn) [Example 163] ... 60
C=C(c1ccc(C(F)(F)F)cc1)C(O)(Cn1cncn1)c1ccc(F)cc1 (stereo not drawn) [Example 65] ... 70
C=C(c1ccccc1)C(O)(Cn1cncn1)c1ccc(Cl)cc1Cl (stereo not drawn) [Example 50] ... 90
C=C(c1cccc(F)c1)C(O)(Cn1cncn1)c1ccc(Cl)cc1 (stereo not drawn) [Example 17] ... 90
C=C(c1ccc(Cl)cc1Cl)C(O)(Cn1cncn1)c1ccc(Cl)cc1 (stereo not drawn) [Example 101] ... 90

Query C=C(c1cccc(F)c1)C(O)(Cn1cncn1)c1ccc(Cl)cc1Cl (stereo not drawn) [Example 16] on Candida albicans ATCC 11651; responders at 150 mg/kg returned: 100

Query C=C(c1ccccc1Cl)C(O)(Cn1cncn1)c1ccc(F)cc1F (stereo not drawn) [Example 35] on Candida albicans ATCC 11651; responders at 150 mg/kg returned: 100

Query C=C(c1ccc(F)cc1)C(O)(Cn1cncn1)c1ccccc1F (stereo not drawn) [Example 644] on Candida albicans ATCC 11651; responders at 150 mg/kg returned: 70
